Assay: Selectivity index, ratio of CC50 for cytotoxicity against LPS/IFNgamma induced mouse RAW264.7 cells to IC50 for antiinflammatory activity in mouse RAW264.7 cells assessed as inhibition in LPS/IFNgamma-induced NO production
Assay type: toxicity, cell-based
Settings: RAW264.7 cells induced with LPS/IFNgamma, read-out: Ratio IC50
Quick list: selectivity ratio per entry.
Output spec: single numeric token, no unit.

As a guide, the following entries are already answered.
- COc1ccc(C#CC2CC3OC2c2cc(OC)c(OC)cc23)cc1 (stereo not drawn): 0.99
- COC(=O)C1=C(C(=O)OC)C2OC1CC2C#Cc1ccccc1OC (stereo not drawn): 1.45
- COc1ccc(C#CC2CC3OC2c2ccccc23)cc1 (stereo not drawn): 1.19
- COC(=O)C1=C(C(=O)OC)C2OC1CC2C#Cc1ccccc1 (stereo not drawn): 1.53

Read the next record carefully.
May I ask what selectivity ratio has been recorded for COC(=O)C1=C(C(=O)OC)C2OC1CC2C#Cc1ccc(C)cc1 (stereo not drawn) ?
4.57

---

Assay: Cytotoxicity against LPS/IFNgamma induced mouse RAW264.7 cells assessed as inhibition of cell growth preincubated for 24 hrs followed by LPS/IFNgamma stimulation and measured after 24 hrs by SRB assay
Assay type: toxicity, cell-based
Settings: RAW264.7 cells induced with LPS/IFNgamma, time 48 hrs
Quick reference: log10(CC50 at 24 h) of the listed items.
Friendly reminder: values = log10 of CC50 at 24 h, unit µM.

Below, each entry is followed by its recorded log10(CC50 at 24 h) result.
• CCOC(=O)C1=C(C(=O)OCC)C2C=CC1O2 = 1.31
• CCOC(=O)C1=C(C(=O)OCC)C2OC1CC2C#Cc1ccc(OC)cc1 (configuration not stated) = 1.28
• COC(=O)C1=C(C(=O)OC)C2OC1CC2C#Cc1ccc(F)cc1 (configuration not stated) = 0.80

State the recorded log10(CC50 at 24 h) for this entry: COC(=O)C1=C(C(=O)OC)C2OC1CC2C#Cc1ccc(OC)cc1 (configuration not stated)
0.88

If you can, please state the reported log10(CC50 at 24 h) value of COC(=O)C1=C(C(=O)OC)C2OC1CC2C#Cc1ccccc1 (configuration not stated) .
0.76

# input compound: COc1ccc(C#CC2CC3OC2c2cc(OC)c(OC)cc23)cc1 (configuration not stated) ; wanted: its log10(CC50 at 24 h)
2.26

Which measured log10(CC50 at 24 h) value corresponds to COC(=O)C1=C(C(=O)OC)C2OC1CC2C#Cc1ccc(Br)cc1 (configuration not stated) ?
0.70

Quick one: log10(CC50 at 24 h) for COC(=O)C1=C(C(=O)OC)C2OC1CC2C#Cc1ccc(C)cc1 (configuration not stated) ?
1.09

---

Experiment: Selectivity index, ratio of CC50 for cytotoxicity against TNF-alpha induced HEK293T cells to IC50 for inhibition of TNF-alpha induced NF-kappaB activation in HEK293T cells
Assay type: toxicity, cell-based
Details: human, HEK293T cells induced with TNF-alpha; read-out: Ratio IC50
// returns -1 unless selectivity ratio is strictly below 3, in which case 1

Identify whether the compound `CC(C)(C)OC(=O)C1=C(C(=O)OC(C)(C)C)C2C=CC1O2` records selectivity ratio below 3.
1

Dear reviewer, please state whether `COc1ccc(OC)c2c1C1C=CC2O1` has selectivity ratio strictly beneath 3.
-1

Would you kindly verify if selectivity ratio of COC(=O)C1=C(C(=O)OC)C2OC1CC2C#Cc1ccccc1 (stereo unspecified) is strictly less than 3?
-1

Decide: selectivity ratio of `C[C@@H]1C[C@H]2[C@@H]3CCC4=CC(=O)C=C[C@]4(C)[C@@]3(F)[C@@H](O)C[C@]2(C)[C@@]1(O)C(=O)CO` strictly below 3?
-1

Strictly below 3 in selectivity ratio? COc1ccc(C#CC2CC3OC2c2cc(OC)c(OC)cc23)cc1 (stereo unspecified)
1
